Target: DrOTOP1 G130W/A388W (Danio rerio, UniProt Q7ZWK8, A388W/G130W)
Construct: A previously generated codon-optimized full-length DrOTOP1[8]; (UniProt: Q7ZWK8) construct; expressed in transfected cells; host or cells: HEK-293 (CRL-1573, ATCC)
Sequence (Q7ZWK8 1-586 G130W/A388W): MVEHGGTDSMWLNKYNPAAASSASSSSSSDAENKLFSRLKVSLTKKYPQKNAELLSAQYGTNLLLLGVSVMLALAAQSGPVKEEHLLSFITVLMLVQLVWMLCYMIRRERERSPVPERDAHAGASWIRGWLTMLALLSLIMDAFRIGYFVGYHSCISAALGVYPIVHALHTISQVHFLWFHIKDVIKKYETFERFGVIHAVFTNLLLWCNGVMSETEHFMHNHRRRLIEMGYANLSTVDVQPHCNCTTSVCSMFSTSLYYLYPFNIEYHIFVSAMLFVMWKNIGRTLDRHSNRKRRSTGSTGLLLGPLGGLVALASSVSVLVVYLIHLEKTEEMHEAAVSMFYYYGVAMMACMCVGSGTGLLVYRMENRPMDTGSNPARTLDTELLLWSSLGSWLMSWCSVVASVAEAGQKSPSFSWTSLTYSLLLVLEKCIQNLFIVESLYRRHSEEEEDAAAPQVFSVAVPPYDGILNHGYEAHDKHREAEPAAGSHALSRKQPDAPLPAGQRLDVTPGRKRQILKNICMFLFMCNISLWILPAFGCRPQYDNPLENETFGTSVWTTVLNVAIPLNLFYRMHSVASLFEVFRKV
Test: Whole-cell patch-clamp, inhibition of acid-evoked currents, DrOTOP1 G130W/A388W
Format: cell-based, zebrafish (Danio rerio)
Details: DrOTOP1 G130W/A388W; pH 5.5; read-out: IC50
endpoint-label: IC50 (µM)

> print(dat)
                       smiles.record  readout.value
1  C=C(C)COc1ccccc1NC(=O)c1nc[nH]c1C            397

----------
Biological target: DrOTOP1 G130W/A388W (Danio rerio, UniProt Q7ZWK8, A388W/G130W)
Construct: A previously generated codon-optimized full-length DrOTOP1[8]; (UniProt: Q7ZWK8) construct; expressed in transfected cells; host or cells: HEK-293 (CRL-1573, ATCC)
Assay: Whole-cell patch-clamp, inhibition of acid-evoked currents, DrOTOP1 G130W/A388W
Assay type: cell-based, zebrafish (Danio rerio)
Conditions: G130W/A388W; best-fit value, Top = 100, Bottom = 0; read-out: AbsoluteIC50
pIC50: −log10 of the molar value.
endpoint-label: pIC50

> print(dat)
                       smiles.record                             tested.system  readout.value
1  C=C(C)COc1ccccc1NC(=O)c1nc[nH]c1C  DrOTOP1 G130W/A388W (Danio rerio, UniProt Q7ZWK8, A388W/G130W)           3.40

----------
Molecular target: DrOTOP1 I565W (Danio rerio, UniProt Q7ZWK8, I565W)
Construct: A previously generated codon-optimized full-length DrOTOP1[8]; (UniProt: Q7ZWK8) construct; expressed in transfected cells; host or cells: HEK-293 (CRL-1573, ATCC)
Experiment: Whole-cell patch-clamp, inhibition of acid-evoked currents, DrOTOP1 I565W (C-domain pocket)
Assay type: cell-based, zebrafish (Danio rerio)
Details: pH 5.5, read-out: IC50
pIC50: −log10 of the molar value.
endpoint-label: pIC50

> print(dat)
                   smiles.record                             tested.system  readout.value
1  O=C(/C(=N\O)c1ccccc1)c1ccccc1  DrOTOP1 I565W (Danio rerio, UniProt Q7ZWK8, I565W)           3.72
